assay: NCI Yeast Anticancer Drug Screen. Data for the rad18 strain (AID 177); conditions: S. cerevisiae rad18 mutant growth inhibition; at 3.7 µM; hits give high values
Compounds without any hit were thinned out: in the full panel of roughly 79,000, 15% have a hit.
measurement.type: growth inhibition (%)
Your answer should be a plain number; it is taken to be in %.

For orientation, consider the following solved cases.
C/C=C/SC(=Nc1ccccc1)Nc1ccccc1 : -5
COc1cc([C@@H]2c3cc4c(cc3[C@H](OC3OC5COC(C(C)C)OC5C(O)C3O)C3COC(=O)[C@@H]32)OCO4)cc(OC)c1O (some centres not stated) : -5
CCC(C)NC1=NCC(C)S1 (configuration not stated) : 0
COC(=O)Oc1cc(Cl)c(Cl)cc1Cl : 5
CCOC(=O)c1[nH]cc(C)c1-c1cccn1-c1ccc(Cl)cc1[N+](=O)[O-] : 6
C#CCN(Cc1ccc2nc(N)[nH]c(=O)c2c1)c1ccc(C(=O)NC(CCC(=O)O)C(=O)O)cc1 (configuration not stated) : -23
COc1cc(C2SCC(=O)N2c2ccc(-c3ccc(-n4c(-c5ccccc5)nc5ccccc5c4=O)cc3)cc2)ccc1O (configuration not stated) : -1
CCCCCCN(CCCCCC)CC(O)c1ccnc2ccc(OC)cc12 (configuration not stated) : -7

Any idea what growth inhibition was measured for O=C(/C=C(/c1ccccc1)N1CCCCC1)c1ccccc1 ?
1

What growth inhibition value was documented for this compound, Cc1cccc(/C=N/NC(=S)N2CCCC2)n1 ?
-14

State the recorded growth inhibition for this entry: CS(=O)(=O)SCc1ccc([N+](=O)[O-])cc1
29

I have this compound here, N#CNC(N)=Nc1cc2ccccc2c2ccccc12 , and I need its recorded growth inhibition.
34

Which growth inhibition value is on record for Cn1c(-c2ccc(/C=N\N3CCN(/N=C/c4ccc(-c5c[n+]6ccccc6n5C)cc4)CC3)cc2)c[n+]2ccccc12 ?
-19

Consider the compound Cc1cc(-c2cc(C)c(O)c(C(C)(C)C)c2)cc(C(C)(C)C)c1O and give its measured growth inhibition.
-36

Query: growth inhibition; subject: O=C1C(Br)=C(c2ccccc2)O/C1=C/C(=O)c1ccc(Br)cc1
3

Suppose we examine the compound Cc1nc2ccc(N=NN(C)C)cc2[nH]1 ; what growth inhibition value has been reported?
23

Return reported growth inhibition; argument: CS(=O)(=O)OCCN(CCOS(C)(=O)=O)c1ccc(C=Nc2ccc(-c3csc(COc4ccccc4)n3)cc2)cc1
61

Entry under review: CC(NCCN(C)C)C1CCC2C3CCc4cc(O)ccc4C3CCC12C (configuration not stated) . Reported growth inhibition?
20

Which growth inhibition value is on record for CCOC1=C/C(=N\Nc2ccc([N+](=O)[O-])cc2)CCC1 ?
8

Tell me the measured growth inhibition of Cc1cc2cc3cc(C)c(N)cc3nc2cc1N , please.
-25

Fill blank: measured growth inhibition of the compound Clc1ccc(NCNC2Nc3ccccc3N2)cc1Cl is ____.
65

Could you share which growth inhibition value was measured for OC1(c2ccccc2)CCCc2ccc(Cl)cc21 (configuration not stated) ?
4
